Measured normalized growth, listed per entry for reference.
# Run description: chemical genetic growth profiling, strain panel (AID 1159580);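 note: tested at 20 µM; growth read once vehicle control cultures reached saturation at 30 °C; 1 = growth at the plate median or of vehicle wells; lower values mean less growth of the strain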
# Study conditions: S. cerevisiae deletion strains, growth OD, locus YHR129C, strain ARP1, active compounds read low
Hit rate of the full screen: of about 5,500 compounds, about 2,000 (36%) were called active. Inconclusive results (about 18%) are left out. Some of the results follow.
Respond with the number and no other words.

Completed entries (count: 6):
O=c1[nH]cnc2nc[nH]c12; 0.996
COc1cc2c(cc1-c1coc3c4c(c(OC)cc3c1=O)OC(C)(C)C=C4)OCO2; 0.959
O=[N+]([O-])/N=C1/NCCN1Cc1ccc(Cl)cc1; 0.994
COc1cc(O)c(C(C)=O)c(OC)c1; 1.02
CC(C)=CCC1=C(O)c2ccccc2C(=O)C1=O; 0.952
CCN(CC)CCNC(=O)COc1ccc(OC)cc1; 0.994

Next, consider the following compound.
So what's the measured normalized growth for this one? COc1cc2ccc(=O)oc2c(O)c1O
0.995
